- method_notes: Solubility in Normal Ringer Solution
- Format: physicochemical
- experimental_context: aqueous buffer, kinetic from dmso stock, pH 7.4, room temperature
measured_property: solubility at 40 min

> print(dat)
                                   compound     measured.property    reading
1  C[C@@H](C(=O)Nc1ccnc(-c2cnc(N3CCC(C(F)(F)F)C3)nc2)n1)n1cnc2c1c(=O)n(C)c(=O)n2C (stereo partly shown) [Compound 16]  solubility at 40 min    > 47 µM
2  C[C@@H](C(=O)Nc1ccnc(-c2cnc(N3CCC[C@H]3C(F)(F)F)nc2)n1)n1cnc2c1c(=O)n(C)c(=O)n2C(F)F [Compound 6]  solubility at 40 min     ~23 µM
3  C[C@@H](C(=O)Nc1ccnc(-c2cnc(N3CCC[C@@H]3C(F)(F)F)nc2)n1)n1cnc2c1c(=O)n(C)c(=O)n2C [Compound 4]  solubility at 40 min  > 31.3 µM
4  C[C@@H](C(=O)Nc1ccnc(-c2cnc(N3CCCC3(C)C)nc2)n1)n1cnc2c1c(=O)n(C)c(=O)n2C [Compound 1]  solubility at 40 min  > 14.3 µM

###

- method_notes: Plasma protein binding, equilibrium dialysis
- experimental_context: beagle, dog, pooled K2EDTA plasma
measured_property: fraction unbound at 6 h, 1 μM

> print(dat)
                                        smi  reading
1  C[C@@H](C(=O)Nc1ccnc(-c2cnc(N3CCC[C@H]3C(F)(F)F)nc2)n1)n1cnc2c1c(=O)n(C)c(=O)n2C    0.055

###

- method_notes: Metabolic stability in liver microsomes
- Format: in vitro ADME, human
- experimental_context: 1 μM test compound
The label depends only on Human Liver Microsomes Hepatic Clearance: class 1 if it is at least 10 mL/min/kg, class 0 if it is smaller.

> print(dat)
                                   molecule  category.label
1  Cn1c(=O)c2c(ncn2CC(=O)Nc2ccnc(-c3cnc(N4CCCC4(C)C)nc3)n2)n(C)c1=O         class 1
2  [2H]C([2H])([2H])n1c(=O)n(C)c(=O)c2c1ncn2CC(=O)Nc1ccnc(-c2cnc(N3CCC[C@@H]3C)nc2)n1         class 0
3  C[C@H]1CCCN1c1ncc(-c2nccc(NC(=O)Cn3cnc4c3c(=O)n(C)c(=O)n4C)n2)cn1         class 0
4  C[C@@H](C(=O)Nc1ccnc(-c2cnc(N3CCC[C@H]3C(F)(F)F)nc2)n1)n1cnc2c1c(=O)n(C)c(=O)n2C         class 0
5  C[C@H]1CCCN1c1ncc(-c2nccc(NC(=O)[C@H](C)n3cnc4c3c(=O)n(C)c(=O)n4C)n2)cn1         class 1
6  C[C@H]1CCCCN1c1ncc(-c2nccc(NC(=O)Cn3cnc4c3c(=O)n(C)c(=O)n4C)n2)cn1         class 1
7  C[C@@H](C(=O)Nc1ccnc(-c2cnc(N3CCCC3(C)C)nc2)n1)n1cnc2c1c(=O)n(C)c(=O)n2C         class 1
8  C[C@H](C(=O)Nc1ccnc(-c2cnc(N3CCC[C@@H]3C)nc2)n1)n1cnc2c1c(=O)n(C)c(=O)n2C         class 1
9  CC(C(=O)Nc1ccnc(-c2cnc(N3CCCC[C@@H]3C)nc2)n1)n1cnc2c1c(=O)n(C)c(=O)n2C (stereo partly drawn)         class 1
